Test system: SNB-19 CNS
Test: NCI tumour cell line growth inhibition, 48 h
Assign class by TGI: not lower than 20 µM means rule met; lower than 20 µM means rule not met.

Threshold query (TGI >= 20 µM) on Cc1cc2c([N+](=O)[O-])cc3c(c2o1)C(=O)C=CC3=O rule met

Threshold query (TGI >= 20 µM) on COC(C)(C)[C@@H](O)[C@H]1C[C@H](C)[C@@]2(CC[C@]3(C)[C@@H]2CC[C@@H]2[C@@]4(C)CC[C@@H](OC(C)=O)C(C)(C)[C@@H]4C[C@@H](OC4OC(COC(C)=O)C(O)C(O)C4O)[C@]23C)O1 (stereo not given in full) rule met

Threshold query (TGI >= 20 µM) on O=C1Nc2ccccc2/C1=C1\CCc2cc(O)ccc21 rule met

Threshold query (TGI >= 20 µM) on Nc1nc(Cl)cc(NCC2(CO)CCC(CCc3ccccc3)C2)n1 (stereo not given) rule met

Threshold query (TGI >= 20 µM) on Nc1cc(Br)c(-c2nnc(CCC(=O)c3nc4ccccc4[nH]3)o2)c(Br)c1 rule met

---
Threshold query (TGI >= 20 µM) on CC(C)(C)OC(=O)NCCC(N)=S rule met

Threshold query (TGI >= 20 µM) on O=C(Nc1ccccc1F)c1cc2ccc(O)cc2oc1=Nc1ccccc1F rule not met

Threshold query (TGI >= 20 µM) on N#CCc1nc(-c2ccccc2)n[nH]1 rule met

Threshold query (TGI >= 20 µM) on c1coc(-c2c3ccc(=[N+]4CCCCC4)cc-3oc3cc(N4CCCCC4)ccc23)c1 rule not met

Threshold query (TGI >= 20 µM) on Cn1c(=O)nc2n(-c3cc(C(F)(F)F)cc(C(F)(F)F)c3)c3ccccc3nc-2c1=O rule met

###

System: CCRF-CEM leukemia
Experiment: NCI tumour cell line growth inhibition, 48 h
Item-by-item account of TGI

Name the recorded TGI for Cc1[nH]c2ccccc2c1C1Cc2ccccc2N1C(=O)C#Cc1ccc([N+](=O)[O-])cc1 (stereo unspecified) . > 100 µM

Name the recorded TGI for NNC1=N/C(=C\c2ccco2)C(Cl)=N1 . > 100 µM

---
Name the recorded TGI for CC(=O)O/N=C/c1c2ccccc2cc2ccccc12 . > 100 µM

###

Tested on: OVCAR-5 ovarian
Experiment: NCI tumour cell line growth inhibition, 48 h
readout.label: TGI

Request: TGI, test system OVCAR-5 ovarian, entry CSC(=Nc1ccccc1)N(c1ccccc1)c1nc(=[N+](C)C)ss1 28.6 µM

Request: TGI, test system OVCAR-5 ovarian, entry Cc1cn([C@@H]2C[C@H](CO)[C@@H](O)C2)c(=O)[nH]c1=O > 100 µM

Request: TGI, test system OVCAR-5 ovarian, entry CC(=O)Oc1cc(C(F)(F)F)ccc1C(=O)OC1(C)OC(=O)c2ccc(C(F)(F)F)cc2O1 (stereo not given) > 100 µM

Request: TGI, test system OVCAR-5 ovarian, entry CN(C(=O)c1ccc([N+](=O)[O-])cc1)c1ccccc1 > 100 µM

Request: TGI, test system OVCAR-5 ovarian, entry CC(C)c1[nH]nc2c1N=C(c1ccccc1Cl)c1cc([N+](=O)[O-])ccc1N2 > 25 µM

###

Tested on: SNB-19 CNS
Assay: NCI tumour cell line growth inhibition, 48 h
Item-by-item account of TGI

Examples with answers:
Name the recorded TGI for NC(CC1=CS(=O)(=O)c2ccc(Cl)cc21)C(=O)O (stereo unspecified) . > 100 µM

Name the recorded TGI for O=C1NCCS(=O)(=O)N[C@@H](CC2=CC=CCC2)C(=O)N2CCCC12 (stereo partly specified) . > 100 µM

Name the recorded TGI for O=C(NC(COC(=O)C(Cc1ccccc1)NC(=O)c1ccccc1)Cc1ccccc1)c1ccccc1 (stereo unspecified) . > 50 µM

Name the recorded TGI for Cc1ccc(OCCn2cc(Nc3ccccc3)c(=O)n(CCOc3ccc(C)cc3)c2=O)cc1 . > 100 µM

Name the recorded TGI for CCCc1cc(=O)n2c(C(=O)Nc3ccc(Cl)cc3C)c(C(=O)Nc3ccc(F)cc3)sc2n1 . 74.2 µM

Name the recorded TGI for CCOP(=O)(OCC)C(C(=O)OC)C(=O)C(=O)Nc1ccc(Cl)cc1Cl (stereo unspecified) . > 100 µM

Name the recorded TGI for CCCC/C(=C\C1=C(C)C(=O)C(OC)=C(OC)C1=O)C(=O)O . > 100 µM

Name the recorded TGI for COC(=O)c1cc2c(cc1CC1Cc3cc4c(cc3C1)CCC4)CCC2 . > 100 µM

Name the recorded TGI for O=C1c2ccccc2-c2c1c1ccccc1c(=O)n2CCN1CCNCC1 . 4.9 µM

Name the recorded TGI for COc1ccc(-c2ccc3c(N4CCOC[C@@H]4C)nc(N4CCOC[C@@H]4C)nc3n2)cc1CO . > 100 µM

---
Name the recorded TGI for Cc1cc2c(c(C(N)=O)c1C)-c1ccccc1C2=O . > 100 µM

Name the recorded TGI for O=C(Oc1cc(=O)c(OC(=O)c2ccccc2)co1)c1ccccc1 . > 100 µM

Name the recorded TGI for O=c1[nH]cnc(NC2C=C(CO)C(O)C2O)c1[N+](=O)[O-] (stereo unspecified) . > 100 µM

Name the recorded TGI for CC1CC(O)C(=O)C(O[C@@H]2C[C@@H]3CC[C@@H]4[C@H](CC[C@]5(C)C(C6=CC(=O)OC6)CC[C@]45O)[C@@]3(C=O)C[C@H]2O)O1 (stereo partly specified) . 0.0316 µM

Name the recorded TGI for C(=Nc1ccc(-c2nc3ccccc3o2)cc1)c1ccco1 . > 100 µM

Name the recorded TGI for CN(Cc1ccccc1)c1cc(=O)n(C)c(=O)[nH]1 . > 100 µM
